test system: porcine scleral tissue; assay: scleral tissue cross-linking of cut porcine scleral pieces, shift in Tm by DSC; details: 25 mM, pH 7.4, 30 mins
assay readout: ΔTm of scleral tissue (°C)
State just the number; it will be interpreted in °C.

Request: Recorded ΔTm of scleral tissue for O=C(NCNC(=O)NC1C(=O)NC(=O)N1CO)NC1C(=O)NC(=O)N1CO (stereo not drawn) , please?
Result: 1.280

Request: Item O=C([O-])CNCO.[Na+] [SMG, sodium hydroxymethylglycinate] has what recorded ΔTm of scleral tissue?
Result: 1.697

Request: Entry "CC1(C)C(=O)N(CO)C(=O)N1CO" : reported ΔTm of scleral tissue = ?
Result: 1.693
